assayed system: human TLR7 (Homo sapiens (Human), UniProt Q9NYK1)
Sequence (Q9NYK1 27-1049): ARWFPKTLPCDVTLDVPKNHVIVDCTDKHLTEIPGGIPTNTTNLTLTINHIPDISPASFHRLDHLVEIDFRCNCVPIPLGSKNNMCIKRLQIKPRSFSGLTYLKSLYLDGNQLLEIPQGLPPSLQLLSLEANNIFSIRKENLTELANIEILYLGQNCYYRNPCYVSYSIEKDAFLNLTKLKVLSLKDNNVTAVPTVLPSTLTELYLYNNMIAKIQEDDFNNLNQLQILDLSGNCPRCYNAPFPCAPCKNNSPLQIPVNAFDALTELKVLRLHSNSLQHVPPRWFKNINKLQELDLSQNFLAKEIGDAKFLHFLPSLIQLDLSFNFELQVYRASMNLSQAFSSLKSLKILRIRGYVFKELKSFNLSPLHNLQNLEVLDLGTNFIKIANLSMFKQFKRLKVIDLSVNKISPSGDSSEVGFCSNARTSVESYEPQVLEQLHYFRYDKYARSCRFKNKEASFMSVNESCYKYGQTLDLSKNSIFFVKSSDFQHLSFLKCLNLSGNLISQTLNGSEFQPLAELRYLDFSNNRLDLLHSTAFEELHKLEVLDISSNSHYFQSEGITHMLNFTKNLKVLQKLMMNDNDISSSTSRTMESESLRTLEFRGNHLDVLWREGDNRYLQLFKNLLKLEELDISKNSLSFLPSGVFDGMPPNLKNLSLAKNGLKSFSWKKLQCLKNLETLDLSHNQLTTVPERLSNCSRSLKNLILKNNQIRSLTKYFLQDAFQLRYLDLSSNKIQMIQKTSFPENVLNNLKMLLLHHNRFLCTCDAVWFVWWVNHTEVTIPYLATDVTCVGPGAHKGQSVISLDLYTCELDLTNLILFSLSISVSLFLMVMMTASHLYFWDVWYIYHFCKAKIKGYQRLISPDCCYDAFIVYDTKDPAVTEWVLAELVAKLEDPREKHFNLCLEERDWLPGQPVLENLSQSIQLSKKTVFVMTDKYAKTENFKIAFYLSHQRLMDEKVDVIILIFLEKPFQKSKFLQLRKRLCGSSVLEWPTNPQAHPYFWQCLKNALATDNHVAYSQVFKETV
assay: TLR7 inhibition reporter assay (HEK-Blue cells, SEAP reporter, gardiquimod stimulation)
Type: cell-based
experimental conditions: HEK-Blue cells overexpressing human TLR7, gardiquimod 7.5 μM

[
  {
    "compound": "COC[C@@H]1CCCN1CC(=O)N1CCC(c2ccc3[nH]c(-c4cc(C)nc(C)c4)c(C(C)C)c3c2)CC1",
    "IC50, nM": 4.7
  },
  {
    "compound": "Cc1cc(-c2[nH]c3ccc(C4CCN(S(=O)(=O)CC(C)C)CC4)cc3c2C(C)C)ccn1",
    "IC50, nM": 336
  },
  {
    "compound": "Cc1cc(-c2[nH]c3ccc(C4CCNCC4)cc3c2C(C)C)c(Br)c(C)n1",
    "IC50, nM": 16.5
  },
  {
    "compound": "Cc1cc(-c2[nH]c3ccc(C4CCN(C5CCOCC5)CC4)cc3c2C(C)C)ccn1",
    "IC50, nM": 8
  },
  {
    "compound": "Cc1cc(-c2[nH]c3ccc(C4CCN(CC(=O)N(C(C)C)C(C)C)CC4)cc3c2C(C)C)cc(C)n1",
    "IC50, nM": 19.7
  },
  {
    "compound": "Cc1cc(-c2[nH]c3ccc(C4CCN(C(=O)CNCC(C)O)CC4)cc3c2C(C)C)cc(C)n1 (stereo not shown)",
    "IC50, nM": 6.5
  },
  {
    "compound": "Cc1cc(-c2[nH]c3ccc(C4CCNC(=O)C4)cc3c2C(C)C)ccn1 (stereo not shown)",
    "IC50, nM": 186
  },
  {
    "compound": "Cc1cc(-c2[nH]c3ccc(C4CCN(CC(=O)NCC5(C)CC5)CC4)cc3c2C(C)C)cc(C)n1",
    "IC50, nM": 6.9
  },
  {
    "compound": "Cc1cc(-c2[nH]c3ccc(C4CCN(CC(F)(F)F)CC4)cc3c2C(C)C)cc(C)n1",
    "IC50, nM": 230
  },
  {
    "compound": "CCC(CC)N1CCC(c2ccc3[nH]c(-c4cc(C)nc(C)c4)c(C(C)C)c3c2)CC1",
    "IC50, nM": 4.5
  },
  {
    "compound": "CCc1c(-c2ccnc(N(C)C)c2)[nH]c2ccc(C3CCN(C4CCN(CC(C)C)CC4)CC3)cc12",
    "IC50, nM": 3750
  },
  {
    "compound": "Cc1cc(-c2[nH]c3ccc(C4CCN(C(=O)CN(CCO)Cc5ccccc5)CC4)cc3c2C(C)C)cc(C)n1",
    "IC50, nM": 4.4
  },
  {
    "compound": "Cc1cc(-c2[nH]c3ccc(C4CCN(C(=O)Cn5cnnn5)CC4)cc3c2C(C)C)cc(C)n1",
    "IC50, nM": 13.3
  },
  {
    "compound": "CCC(C)CN(CCO)CC(=O)N1CCC(c2ccc3[nH]c(-c4cc(C)nc(C)c4)c(C(C)C)c3c2)CC1 (stereo not shown)",
    "IC50, nM": 7.8
  },
  {
    "compound": "Cc1cc(-c2[nH]c3ccc(C4CCN(C5CC(C)OC(C)C5)CC4)cc3c2C(C)C)ccn1 (stereo not shown) [Example 712]",
    "IC50, nM": 36.8
  },
  {
    "compound": "CCc1c(-c2ccnc(OC)c2)[nH]c2ccc(C3CCN(C4C[C@H]5CC[C@@H](C4)N5C)CC3)cc12 (stereo partly shown)",
    "IC50, nM": 666
  },
  {
    "compound": "CCc1c(-c2ccnc(OC)c2)[nH]c2ccc(C3CCN(C4C[C@H]5CCC[C@@H](C4)N5C)CC3)cc12 (stereo partly shown)",
    "IC50, nM": 624
  },
  {
    "compound": "CCc1c(-c2cc(Cl)ncc2OC)[nH]c2ccc(C3CCN(C4CCN(CC(C)C)CC4)CC3)cc12",
    "IC50, nM": 4950
  },
  {
    "compound": "Cc1cc(-c2[nH]c3ccc(C4CCN(C5CCCOC5)CC4)cc3c2C(C)C)c(F)cn1 (stereo not shown)",
    "IC50, nM": 7.3
  }
]

----------
Parameter IC50: see the listing below.
assayed system: human TLR7 (Homo sapiens (Human), UniProt Q9NYK1)
assay: TLR7 inhibition reporter assay (HEK-Blue cells, SEAP reporter, gardiquimod stimulation)
Type: cell-based
experimental conditions: HEK-Blue cells overexpressing human TLR7, gardiquimod 7.5 μM

[
  {
    "molecule": "Cc1cc(-c2[nH]c3ccc(C4CCN(CC(=O)NC5(C)CC5)CC4)cc3c2C(C)C)cc(C)n1",
    "assayed system": "human TLR7 (Homo sapiens (Human), UniProt Q9NYK1)",
    "uom": "nM",
    "IC50": 4.3
  },
  {
    "molecule": "CCc1c(-c2ccnc(C)c2)[nH]c2ccc(C3CCN(C(=O)CCC4CCNCC4)CC3)cc12",
    "assayed system": "human TLR7 (Homo sapiens (Human), UniProt Q9NYK1)",
    "uom": "nM",
    "IC50": 91.8
  },
  {
    "molecule": "Cc1cc(-c2[nH]c3ccc(C4CCN(C(=O)CN5CCN(C)CC5)CC4)cc3c2C(C)C)cc(C)n1",
    "assayed system": "human TLR7 (Homo sapiens (Human), UniProt Q9NYK1)",
    "uom": "nM",
    "IC50": 0.9
  },
  {
    "molecule": "Cc1cc(-c2[nH]c3ccc(C4CCN(C(=O)CN(C)CCF)CC4)cc3c2C(C)C)cc(C)n1",
    "assayed system": "human TLR7 (Homo sapiens (Human), UniProt Q9NYK1)",
    "uom": "nM",
    "IC50": 5.4
  },
  {
    "molecule": "Cc1cc(-c2[nH]c3ccc(C4CCN(C(=O)CN5CCNC(=O)C5)CC4)cc3c2C(C)C)cc(C)n1",
    "assayed system": "human TLR7 (Homo sapiens (Human), UniProt Q9NYK1)",
    "uom": "nM",
    "IC50": 7.7
  },
  {
    "molecule": "Cc1cc(-c2[nH]c3ccc(C4CCN(C(=O)CN5CCC(F)(F)CC5)CC4)cc3c2C(C)C)cc(C)n1",
    "assayed system": "human TLR7 (Homo sapiens (Human), UniProt Q9NYK1)",
    "uom": "nM",
    "IC50": 33.6
  },
  {
    "molecule": "Cc1cc(-c2[nH]c3ccc(C4CCN(CC(=O)N(C)CC(O)c5ccccc5)CC4)cc3c2C(C)C)cc(C)n1 (stereo not shown)",
    "assayed system": "human TLR7 (Homo sapiens (Human), UniProt Q9NYK1)",
    "uom": "nM",
    "IC50": 10.5
  },
  {
    "molecule": "Cc1cc(-c2[nH]c3ccc(C4CCN(C(=O)[C@@H]5CC(F)(F)CN5)CC4)cc3c2C(C)C)cc(C)n1",
    "assayed system": "human TLR7 (Homo sapiens (Human), UniProt Q9NYK1)",
    "uom": "nM",
    "IC50": 7
  },
  {
    "molecule": "CCc1c(-c2ccnc(C)c2)[nH]c2ccc(C3CCN(C(=O)CCN(C)C)CC3)cc12",
    "assayed system": "human TLR7 (Homo sapiens (Human), UniProt Q9NYK1)",
    "uom": "nM",
    "IC50": 30.2
  },
  {
    "molecule": "Cc1cc(-c2[nH]c3ccc(C4CCN(C(=O)C5CC(=O)N(C(C)(C)C)C5)CC4)cc3c2C(C)C)ccn1 (stereo not shown)",
    "assayed system": "human TLR7 (Homo sapiens (Human), UniProt Q9NYK1)",
    "uom": "nM",
    "IC50": 55.1
  }
]

----------
assayed system: human TLR7 (Homo sapiens (Human))
assay: TLR7 inhibition reporter assay (HEK-Blue cells, SEAP reporter, gardiquimod stimulation)
Type: cell-based
experimental conditions: HEK-Blue cells overexpressing human TLR7, gardiquimod 7.5 μM
pIC50: −log10 of the molar value.
pIC50 overview

[
  {
    "compound string": "COc1cc(-c2[nH]c3ccc(C4CCN(C5CCN(CC(C)C)CC5)CC4)cc3c2C)ccn1",
    "pIC50": 6.24
  },
  {
    "compound string": "Cc1cc(-c2[nH]c3ccc(C4CCN(C(=O)Cn5cncn5)CC4)cc3c2C(C)C)cc(C)n1",
    "pIC50": 7.92
  },
  {
    "compound string": "CCc1c(-c2ccnc(OC)c2)[nH]c2ccc(C3CCN(C4CCN(CC(C)C)CC4)CC3)cc12",
    "pIC50": 6.30
  },
  {
    "compound string": "Cc1cc(-c2[nH]c3ccc(C4CCN(C(=O)CN5CCOCC5=O)CC4)cc3c2C(C)C)cc(C)n1",
    "pIC50": 8.10
  }
]
